TARGET_OF_ASSAY: human Y4 receptor (human, UniProt P50391 1-375)
Sequence (P50391 whole entry): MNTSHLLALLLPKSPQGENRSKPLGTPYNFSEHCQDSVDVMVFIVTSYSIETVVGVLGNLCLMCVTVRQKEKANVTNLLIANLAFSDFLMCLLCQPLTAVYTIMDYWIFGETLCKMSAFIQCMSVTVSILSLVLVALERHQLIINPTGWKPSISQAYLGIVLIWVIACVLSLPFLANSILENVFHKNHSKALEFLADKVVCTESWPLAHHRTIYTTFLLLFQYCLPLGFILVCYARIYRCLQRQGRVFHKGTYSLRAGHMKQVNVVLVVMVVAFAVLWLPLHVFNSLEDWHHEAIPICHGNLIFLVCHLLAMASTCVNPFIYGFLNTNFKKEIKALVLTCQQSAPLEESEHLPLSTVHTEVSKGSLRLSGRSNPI
PROTOCOL_DETAILS: 125I-PP displacement
MEASUREMENT_NAME: IC50 (pM)
Answers are plain numbers, in pM.

Past entries and their recorded results:
> print(dat)
                                     binder  measurement.name  unit.descriptor  test.value
1  APLEPVYPGDNATPEQMAQYAADLRRYINMCTRPRY [6835]              IC50               pM         260
2  HAPLEPVYPGDNATPEELNQYYASLRRYINMLTRPRY [6857]              IC50               pM         220
3  AAPLEPFYPGDDATPQQMAQYAAALRRYINMLTRPRY [6665]              IC50               pM         120

Required: IC50, one value per binder below.
1. AAPLEPVYPGDNATPEQMAQYAADLRKYINLLTRPRY [6669]
2. APLEPVYPGDNATPEELVKYFSALRRYINMLTRPRY [6848]
3. PAPLEPVYPGDDATPQQMAQYAAELRRYINMLTRPRY [6865]
4. APLEPVYPGDDATPQQMARYAAELRRYINMLTRPRY [6815]

[reply]
[320, 120, 290, 130]
